Molecular target: T1, human a-PD-L1 Fc (Sino Biological, 10084-H02H, LC11NO2402) (human, UniProt Q9NZQ7 19-239)
T1 construct: Bought Fc fusion immobilised on the SPR chip; Printed as 'a-PD-L1 Fc' but used as the antigen (ligand) for the anti-PD-L1 scFvs; also called Human PD-L1; not shown: Fc part
T1 sequence (Q9NZQ7 19-239 limits assumed): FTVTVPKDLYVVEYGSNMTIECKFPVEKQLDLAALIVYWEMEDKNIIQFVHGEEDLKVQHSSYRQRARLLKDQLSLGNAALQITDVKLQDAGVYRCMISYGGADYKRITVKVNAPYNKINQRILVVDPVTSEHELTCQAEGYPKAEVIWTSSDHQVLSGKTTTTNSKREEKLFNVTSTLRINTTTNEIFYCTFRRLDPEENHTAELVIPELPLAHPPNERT
Assay: SPR, PD-L1 Fc immobilised, scFv analyte, 1:1 fit
Method: The mutation variants were then injected at concentrations of 10 nM, 2 nM and 0.4 nM over the ligand-immobilized and reference spots. The wild type variants were used as a control, while an empty spot was used as reference. After each cycle with analyte, the surface was regenerated with a 3M MgCl₂ solution, thereby allowing the next analyte cycle to have only free ligand available. […]
value_kind: n-fold to wt (fold)
State just the number; it will be interpreted in fold.

binder PRO2951 (scFv 37-20-B03-sc09.1_(T101R)) (scFv, PRO2230 variant; VH substitution, AHo numbering; also called PRO2230 T101R) scFv: DIQMTQSPASLSASVGDRVTITCQASQSIGTYLAWYQQKPGKPPKLLIYRAFILASGVPSRFSGSGSGTDFTLTISSLQPEDFATYYCQSNFYSDSTTIGPNAFGTGTKVTVLGGGGGSGGGGSGGGGSGGGGSEVQLVESGGGLVQPGGSLRLSCAASGFSFNSDYWIYWVRQAPGKGLEWIASIYGGSSGNTQYASWAQGRFTISRDNSKNTVYLQMNSLRAEDRAVYFCARGYVDYGGATDLWGQGTLVTVSS , n-fold to wt observed: 0.9

Entry PRO3343 (scFv 37-20-B03-sc09.1_(T101R, T146E)) (scFv, PRO2230 variant; VH substitutions, AHo numbering; also called PRO2230 T101R-T146E) scFv: DIQMTQSPASLSASVGDRVTITCQASQSIGTYLAWYQQKPGKPPKLLIYRAFILASGVPSRFSGSGSGTDFTLTISSLQPEDFATYYCQSNFYSDSTTIGPNAFGTGTKVTVLGGGGGSGGGGSGGGGSGGGGSEVQLVESGGGLVQPGGSLRLSCAASGFSFNSDYWIYWVRQAPGKGLEWIASIYGGSSGNTQYASWAQGRFTISRDNSKNTVYLQMNSLRAEDRAVYFCARGYVDYGGATDLWGQGTLVEVSS , n-fold to wt reported as 0.6

Entry under test: PRO2947 (scFv 37-20-B03-sc09.1_(T146K)) (scFv, PRO2230 variant; VH substitution, AHo numbering; also called PRO2230 T146K) scFv: DIQMTQSPASLSASVGDRVTITCQASQSIGTYLAWYQQKPGKPPKLLIYRAFILASGVPSRFSGSGSGTDFTLTISSLQPEDFATYYCQSNFYSDSTTIGPNAFGTGTKVTVLGGGGGSGGGGSGGGGSGGGGSEVQLVESGGGLVQPGGSLRLSCAASGFSFNSDYWIYWVRQAPGKGLEWIASIYGGSSGNTQYASWAQGRFTISRDNSKNTVYLQMNSLRAEDTAVYFCARGYVDYGGATDLWGQGTLVKVSS . Its n-fold to wt was 0.8
